# Test system: HCT-116
# TEST_DESCRIPTION: NCI tumour cell line growth inhibition, 48 h
Activity calls are given as the source filed them. Rule as the data show it: active = GI50 up to about 1.1 µM and inactive = higher.
RECORDED_ENDPOINT: GI50

> print(dat)
                                    molecule  recorded.endpoint                value
 1  COC(=O)c1cc2c(c(C(=O)OC)c1O)C(=O)C=CC2=O               GI50  > 9.1 µM (inactive)
 2  N=S(=O)(c1ccccc1)c1ccccc1[N+](=O)[O-] (stereo unspecified)               GI50  > 100 µM (inactive)
 3  CCOC(=O)/C=C(/C(=O)OCC)n1ccc(=O)n(/C(=C/C(=O)OCC)C(=O)OCC)c1=O               GI50   2.39 µM (inactive)
 4  COc1ccc(N[S+]([O-])CCc2ccccc2)cc1 (stereo unspecified)               GI50  > 100 µM (inactive)
 5  O=c1c(Br)cc2c(-c3ccccc3)c3cc(Br)c(O)c(Br)c3oc-2c1Br               GI50   44.8 µM (inactive)
 6  O=c1c2ccccc2nc(-c2ccccc2)n1NC(=S)Nc1ccc(Cl)cc1               GI50   55.1 µM (inactive)
 7  Cc1nn2c(=O)c([N+](=O)[O-])c(/C=C/c3ccccc3)nc2s1               GI50   3.42 µM (inactive)
 8  COc1ccc(-c2nnc(CCCCCCCCc3nnc(-c4ccc(OC)cc4)o3)o2)cc1               GI50   60.7 µM (inactive)
 9  O=C(Cc1nccc2c1[nH]c1ccccc12)OC1C#CCSCC#C/C=C\1 (stereo unspecified)               GI50     50 µM (inactive)
10             CN1CN(c2ccccc2)C2(CCNCC2)C1=O               GI50  > 100 µM (inactive)
11  Cc1nc2c(n1Cc1ccc(Cl)cc1)C(=O)c1ccccc1C2=O               GI50    2.6 µM (inactive)

====

# System: SF-268
# TEST_DESCRIPTION: NCI tumour cell line growth inhibition, 48 h
Activity calls are given as the source filed them. No stated cut-off is given here; in the data, active = GI50 up to about 1.1 µM and inactive = higher.
RECORDED_ENDPOINT: GI50

> print(dat)
                                    compound  tested.system  recorded.endpoint                value
 1  [N-]=[N+]=NC1C(Br)C(=O)NC(=O)N1[C@H]1C[C@H](O)[C@@H](CO)O1 (stereo not given in full)         SF-268               GI50  > 100 µM (inactive)
 2            O=S1(=O)OCCCOS(=O)(=O)C1(Br)Br         SF-268               GI50  > 100 µM (inactive)
 3           C/C(=N/NC(=S)N1CCCCC1)c1ccccc1O         SF-268               GI50   21.5 µM (inactive)
 4  COc1ccc2c(ccc3c(C(=O)NCCCN(C)CCCNC(=O)c4cn(C)c5c4ccc4cc(OC)ccc45)cn(C)c32)c1         SF-268               GI50   1.78 µM (inactive)
 5  CCOC(=O)N1C=NC23C(c4ccccc4)C(c4ccccc4)C12C(=O)N(C)C(=O)N3C (stereo not given)         SF-268               GI50  > 100 µM (inactive)
 6                     O=C(O)CCCC#CCCCC(=O)O         SF-268               GI50  > 100 µM (inactive)
 7           CSc1ncnc2c1ncn2CCC(=O)OC(C)(C)C         SF-268               GI50  > 100 µM (inactive)
 8  C=C1C(C2(C)C=CC(=O)OC3(C)COC(=O)CC32)C(OC=O)C(OC(=O)C(O)C(C)CC)C2(C)C(c3ccoc3)CC(OC(C)=O)C12O (stereo not given)         SF-268               GI50  > 100 µM (inactive)
 9  O=c1c(-c2ccc(Cl)cc2)nnc2n(Cc3ccccc3)c3ccccc3n12         SF-268               GI50   23.3 µM (inactive)
10                 Nc1nc(Cl)nc(NCc2ccccc2)n1         SF-268               GI50  > 100 µM (inactive)
